method.summary: Volume of distribution in rats when administered at a dose of 0.5 mg/kg i.v.
Format: ADME, organism-based
Parameters: dose 0.5 mg/kg, route intravenous
reported.conditions: rat, in vivo, iv
measurement.name: Vd (L/kg)

Examples from the recorded data:
{"item.smiles": "O=C1Nc2c(Cl)ccc(OCCN3CCOCC3)c2C2(CCCCC2)N1", "units.label": "L/kg", "observed": 1.02}
{"item.smiles": "O=C1Nc2c(Cl)ccc(OCCO)c2C2(CCCCC2)N1", "units.label": "L/kg", "observed": 1.41}

P = O=C(O)CNCCOc1ccc(Cl)c2c1C1(CCCCC1)NC(=O)N2
Q = O=C(O)COc1ccc(Cl)c2c1C1(CCCCC1)NC(=O)N2
Data request: Sorting by Vd in descending order, would P or Q appear first? Return value: the label identifying the chosen record.
Data returned: Q
(Q: 1.04 L/kg, P: 0.47 L/kg)
